Target: TEC (Homo sapiens, UniProt P42680)
Sequence (P42680 whole entry): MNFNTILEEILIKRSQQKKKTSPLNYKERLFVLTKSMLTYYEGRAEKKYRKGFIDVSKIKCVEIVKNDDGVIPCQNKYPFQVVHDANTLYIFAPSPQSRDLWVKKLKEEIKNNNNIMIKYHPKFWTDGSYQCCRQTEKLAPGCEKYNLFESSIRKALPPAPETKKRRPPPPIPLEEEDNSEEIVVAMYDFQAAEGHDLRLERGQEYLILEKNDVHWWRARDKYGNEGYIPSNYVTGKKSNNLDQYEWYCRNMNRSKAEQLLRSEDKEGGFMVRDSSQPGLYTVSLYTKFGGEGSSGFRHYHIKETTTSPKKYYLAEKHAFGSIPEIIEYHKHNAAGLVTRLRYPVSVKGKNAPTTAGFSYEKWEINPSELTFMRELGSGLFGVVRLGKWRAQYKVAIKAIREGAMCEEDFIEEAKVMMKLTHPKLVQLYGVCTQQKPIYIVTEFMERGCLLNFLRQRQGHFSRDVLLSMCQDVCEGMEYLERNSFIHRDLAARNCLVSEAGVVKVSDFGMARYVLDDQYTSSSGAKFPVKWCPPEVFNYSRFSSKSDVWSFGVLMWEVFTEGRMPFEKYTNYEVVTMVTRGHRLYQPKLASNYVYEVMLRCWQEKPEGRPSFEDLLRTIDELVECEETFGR
Assay: Inhibition of a panel of kinases (in vitro HotSpot kinase assay, 33P-ATP, 1 μM ATP)
Format: biochemical
Details: ratio of TEC IC50 to Btk IC50 (selectivity)
Strictly below 500 in TEC/Btk: 1.0. Otherwise: 0.0.

In: Lab log: compare recorded TEC/Btk with 500; is it strictly lower for C=CC(=O)N1CCC[C@@H](Nc2n[nH]c3nccc(-c4ccc(CNC(=O)c5cc(C(C)C)on5)c(F)c4)c23)[C@H]1C ?
Out: 1.0

In: Lab log: compare recorded TEC/Btk with 500; is it strictly lower for CC(C)(C)c1cc(C(=O)NCc2ccc(-c3ccnc4[nH]nc(N[C@@H]5CCNC5)c34)cc2F)no1 ?
Out: 0.0

In: Lab log: compare recorded TEC/Btk with 500; is it strictly lower for C[C@H]1CC[C@@H](Nc2n[nH]c3nccc(-c4ccc(CNC(=O)c5noc(C(C)(C)C)n5)c(F)c4)c23)CN1C(=O)N1CCOCC1 ?
Out: 0.0

In: Lab log: compare recorded TEC/Btk with 500; is it strictly lower for C[C@H]1CC[C@@H](Nc2n[nH]c3nccc(-c4ccc(CNC(=O)c5noc(C(C)(C)C)n5)c(F)c4)c23)CN1C(=O)CC#N ?
Out: 1.0

In: Lab log: compare recorded TEC/Btk with 500; is it strictly lower for CN(C)C(=O)N1CC[C@@H](Nc2n[nH]c3nccc(-c4ccc(CNC(=O)c5cnn(C(C)(C)C)c5)c(F)c4)c23)C1 ?
Out: 1.0

In: Lab log: compare recorded TEC/Btk with 500; is it strictly lower for C=CC(=O)N1CC[C@@H](Nc2n[nH]c3nccc(-c4ccc(CC(=O)Nc5noc(C(C)(C)C)n5)c(F)c4)c23)C1 ?
Out: 1.0

* * *

Can you tell me pIC50 for the items I'm about to list?
Molecular target: UniProt:P51813
Sequence (P51813 1-675): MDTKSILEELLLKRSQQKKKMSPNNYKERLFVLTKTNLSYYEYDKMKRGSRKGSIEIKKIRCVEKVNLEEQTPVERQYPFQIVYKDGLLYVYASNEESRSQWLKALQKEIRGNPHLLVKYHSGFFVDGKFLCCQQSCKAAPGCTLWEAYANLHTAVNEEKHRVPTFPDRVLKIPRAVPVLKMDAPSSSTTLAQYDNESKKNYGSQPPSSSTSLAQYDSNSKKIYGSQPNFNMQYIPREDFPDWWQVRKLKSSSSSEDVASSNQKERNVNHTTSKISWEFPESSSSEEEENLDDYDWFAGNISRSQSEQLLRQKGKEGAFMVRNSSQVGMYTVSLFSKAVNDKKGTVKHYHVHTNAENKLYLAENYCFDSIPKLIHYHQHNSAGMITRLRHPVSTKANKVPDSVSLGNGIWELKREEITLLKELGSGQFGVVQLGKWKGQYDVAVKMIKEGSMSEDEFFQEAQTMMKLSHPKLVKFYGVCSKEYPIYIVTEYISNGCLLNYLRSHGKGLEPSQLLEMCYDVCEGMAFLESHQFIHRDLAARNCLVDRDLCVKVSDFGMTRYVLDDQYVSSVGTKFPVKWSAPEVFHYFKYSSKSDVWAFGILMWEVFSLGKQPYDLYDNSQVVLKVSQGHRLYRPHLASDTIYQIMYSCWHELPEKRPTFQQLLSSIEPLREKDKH
A value of pIC50 is the negative decimal logarithm of a concentration given in moles per litre.

In: // map C=CC(=O)N[C@@H]1CCN(c2n[nH]c3nccc(-c4ccc([C@@H](C)NC(=O)c5cc(C(C)(C)O)on5)c(F)c4)c23)C1 to recorded pIC50 (system: UniProt:P51813)
Out: 7.46

In: // map CN(C)C(=O)N1CC[C@@H](Nc2n[nH]c3nccc(-c4ccc(CNC(=O)c5cc(C(C)(C)C)on5)c(F)c4)c23)C1 to recorded pIC50 (system: UniProt:P51813)
Out: 5.19

In: // map CC(C)(C)c1noc(C(=O)NCc2ccc(-c3ccnc4[nH]nc(N5CC[C@H](N)C5)c34)cc2F)n1 to recorded pIC50 (system: UniProt:P51813)
Out: 5.74

In: // map C=CC(=O)N1CC[C@@H](Nc2n[nH]c3nccc(-c4ccc(CNC(=O)c5ccc6c(c5)OCCCO6)c(F)c4)c23)C1 to recorded pIC50 (system: UniProt:P51813)
Out: 7.02

In: // map C[C@H]1CC[C@@H](Nc2n[nH]c3nccc(-c4ccc(CNC(=O)c5nc(C(C)(C)C)no5)c(F)c4)c23)CN1C(=O)C1(C)COC1 to recorded pIC50 (system: UniProt:P51813)
Out: 5.30

In: // map C=CC(=O)N[C@@H]1CCN(c2n[nH]c3nccc(-c4ccc(CNC(=O)c5noc(C(C)C)n5)c(F)c4)c23)C1 to recorded pIC50 (system: UniProt:P51813)
Out: 7.58

In: // map CC(=O)N[C@@H]1CCN(c2n[nH]c3nccc(-c4ccc(CNC(=O)c5ccc(C(C)(C)O)cn5)c(F)c4)c23)C1 to recorded pIC50 (system: UniProt:P51813)
Out: 5.16

In: // map CC(C)(C)c1ccc(C(=O)NCc2ccc(-c3ccnc4[nH]nc(N[C@H]5CCNC5)c34)cc2F)cc1 to recorded pIC50 (system: UniProt:P51813)
Out: 5.05

In: // map C=CC(=O)N1CC[C@@H](Nc2n[nH]c3nccc(-c4ccc(CNC(=O)c5ccc6c(c5)OCCO6)c(F)c4)c23)C1 to recorded pIC50 (system: UniProt:P51813)
Out: 6.89

In: // map C[C@@H](NC(=O)c1cc(C(C)(C)O)on1)c1ccc(-c2ccnc3[nH]nc(NC4CCCCC4)c23)cc1 to recorded pIC50 (system: UniProt:P51813)
Out: 5.36

In: // map CC(C)(C)c1nc(C(=O)NCc2ccc(-c3ccnc4[nH]nc(C[C@H]5CCNC5)c34)cc2F)no1 to recorded pIC50 (system: UniProt:P51813)
Out: 5.07

In: // map O=C(NCc1ccc(-c2ccnc3[nH]nc(NC4CCNC4)c23)cc1F)c1ccc2c(c1)OCCCO2 (stereo not shown) to recorded pIC50 (system: UniProt:P51813)
Out: 5.15

In: // map C=CC(=O)N1CC[C@@H](Nc2n[nH]c3nccc(-c4ccc(CNC(=O)c5cccc(C(C)(C)C)c5)c(F)c4)c23)C1 to recorded pIC50 (system: UniProt:P51813)
Out: 7.04

In: // map CC(C)(C)c1cc(C(=O)NCc2ccc(-c3ccnc4[nH]nc(N5CC[C@@H](N)C5)c34)cc2F)no1 to recorded pIC50 (system: UniProt:P51813)
Out: 5.85

In: // map C=CC(=O)N(C)[C@@H]1CCN(c2n[nH]c3nccc(-c4ccc(CN(C)C(=O)c5nc(C(C)(C)C)no5)c(F)c4)c23)C1 to recorded pIC50 (system: UniProt:P51813)
Out: 7.55
